# system.name: human recombinant adrenergic α2A receptor (Homo sapiens)
# Construct: expressed in transfected cells; host or cells: insect Sf9 cells
# experiment: Adrenergic α2A radioligand binding ([3H]MK-912)
# Set-up: concentration or dose not given beside the values
# recorded.conditions: percent inhibition of specific binding
measured.endpoint: Inhibition of ligand binding, Adren. alpha2A

CN1CCN(CCn2c3c(c4cc(Cl)ccc42)CN(C)CC3)CC1; 28%
CN1CCc2c(c3cc(Cl)ccc3n2CCc2ccccn2)C1; 84%
Cc1ccc(CCn2c3c(c4cc(C)ccc42)CN(C)CC3)cc1; 99%
Cc1ccc2c(c1)c1c(n2CCN2CCCCC2)CCN(C)C1; 57%
Cc1ccc(CCn2c3c(c4cc(Cl)ccc42)CN(C)CC3)cc1; 100%

====

# system.name: human recombinant histamine H2 receptor (Homo sapiens)
# Construct: expressed in transfected cells; host or cells: CHO-K1 cells
# Sequence (P25021 whole entry): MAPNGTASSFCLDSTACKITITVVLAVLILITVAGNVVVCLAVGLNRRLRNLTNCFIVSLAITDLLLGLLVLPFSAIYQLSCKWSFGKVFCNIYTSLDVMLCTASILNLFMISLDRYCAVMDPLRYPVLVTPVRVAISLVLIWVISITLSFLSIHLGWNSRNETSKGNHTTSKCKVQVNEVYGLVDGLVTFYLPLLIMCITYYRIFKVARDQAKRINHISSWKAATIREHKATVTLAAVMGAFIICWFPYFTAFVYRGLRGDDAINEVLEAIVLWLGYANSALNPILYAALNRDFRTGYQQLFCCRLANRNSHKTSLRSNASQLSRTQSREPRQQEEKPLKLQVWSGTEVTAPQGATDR
# experiment: Histamine H2 radioligand binding ([125I]Aminopotentidine)
# recorded.conditions: 1 μM compound; 0.1 nM [125I]Aminopotentidine; read-out: Histamine Binding H2, percent inhibition of specific binding
measured.endpoint: inhibition at 1 µM (%)

CCN1CCc2c(c3cc(C)ccc3n2Cc2ccc(C)nc2)C1 [Compound 138]; 27
Cc1ccc2c(c1)c1c(n2Cc2ccccc2)CCN(C)C1 [Compound 137]; 45
CN1Cc2c(n(CCc3n[nH]c(=S)n3C)c3ccc(C(F)(F)F)cc23)CC1(C)C [Compound 219]; 71
CCN1CCc2c(c3cc(C)ccc3n2CCc2ccc(C)cc2)C1 [Compound 26]; 73
CN1CCc2c(c3ccccc3n2CCc2ccccc2)C1 [Compound 2]; 81
FC(F)(F)c1ccc2c(c1)c1c(n2CCc2noc(-c3ccccc3)n2)CCN(C2CC2)C1 [Compound 222]; 98
CN1CCc2c(c3cc(Cl)ccc3n2CCc2ccccc2)C1 [Compound 36]; 92
CN1Cc2c(n(CCc3noc(-c4ccccc4)n3)c3ccc(Cl)cc23)CC12CC2 [Compound 223]; 94
CCN1CCc2c(c3ccccc3n2CCc2ccc(C)cc2)C1 [Compound 3]; 51

====

# system.name: human recombinant adrenergic α2A receptor (Homo sapiens)
# Construct: expressed in transfected cells; host or cells: insect Sf9 cells
# experiment: Adrenergic α2A radioligand binding ([3H]MK-912)
# Design: concentration or dose not given beside the values
# recorded.conditions: percent inhibition of specific binding
Outcome: rule met for Inhibition of ligand binding, Adren. alpha2A of at least 90%; rule not met for anything lower.

Cc1ccc2c(c1)c1c(n2CCCc2ccc(C(F)(F)F)nc2)CCN(C)C1 [Compound 331]; rule not met
Cc1ccc(CCn2c3c(c4cc(Cl)ccc42)CN(c2cccc(C(F)(F)F)c2)CC3)cn1 [Compound 403]; rule not met
Cc1ccc(CCn2c3c(c4cc(C(F)(F)F)ccc42)CN(C)CC3)cc1 [Compound 47]; rule met
Cc1ccc(C(O)Cn2c3c(c4cc(C)ccc42)CN(C)CC3)cc1 (racemic) [Compound 28]; rule met
Cc1ccc2c(c1)c1c(n2CCc2cnc(C)cn2)CCN(C)C1 [Compound 322]; rule not met
Cc1ccc2c(c1)c1c(n2CCc2ccc(F)cc2)CCN(C)C1 [Compound 33]; rule met
Cc1ccc2c(c1)c1c(n2CCc2ccc(C(=O)O)nc2)CCNC1 [Compound 262]; rule not met

====

Measured Inhibition of ligand binding, Adren. alpha2A by item
# system.name: human recombinant adrenergic α2A receptor (Homo sapiens, UniProt P08913)
# Construct: expressed in transfected cells; host or cells: insect Sf9 cells
# Sequence (P08913 1-465): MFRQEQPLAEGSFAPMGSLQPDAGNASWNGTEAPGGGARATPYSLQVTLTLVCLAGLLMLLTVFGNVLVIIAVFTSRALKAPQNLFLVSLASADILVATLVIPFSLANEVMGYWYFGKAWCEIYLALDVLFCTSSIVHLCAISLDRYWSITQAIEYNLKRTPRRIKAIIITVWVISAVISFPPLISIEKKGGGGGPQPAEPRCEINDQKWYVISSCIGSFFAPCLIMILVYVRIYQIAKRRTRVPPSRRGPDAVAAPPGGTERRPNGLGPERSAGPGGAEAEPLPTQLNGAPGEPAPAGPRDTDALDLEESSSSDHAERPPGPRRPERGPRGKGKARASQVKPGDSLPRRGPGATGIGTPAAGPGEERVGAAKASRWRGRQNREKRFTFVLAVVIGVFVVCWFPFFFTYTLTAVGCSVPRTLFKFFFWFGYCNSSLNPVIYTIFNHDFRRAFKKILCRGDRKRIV
# experiment: Adrenergic α2A radioligand binding ([3H]MK-912)
# Parameters: concentration or dose not given beside the values
# recorded.conditions: percent inhibition of specific binding
measured.endpoint: Inhibition of ligand binding, Adren. alpha2A (%)

CCN1CCc2c(c3ccccc3n2CCc2ccncc2)C1 [Compound 5]; 20
Cc1ccc2c(c1)c1c(n2CCc2ccccc2)CCN(C)C1 [Compound 20]; 98
CN1CCc2c(c3cc(Cl)ccc3n2CC(=O)N2CCOCC2)C1 [Compound 238]; −13
CN1CCc2c(c3cc(Cl)ccc3n2CCC(=O)N2CCCC2)C1 [Compound 240]; 36
Cc1ccc(CCn2c3c(c4cc(Cl)c(F)cc42)CN(C)CC3)cn1 [Compound 404]; 94
CN1CCc2c(c3cc(Cl)ccc3n2CC(=O)N2CC[S+]([O-])CC2)C1 [Compound 296]; 1
CN1CCc2c(c3cc(Cl)ccc3n2CC(=O)N2CCS(=O)(=O)CC2)C1 [Compound 295]; 26
Cc1ccc2c(c1)c1c(n2CCc2cnc(C)nc2)CCN(C)C1 [Compound 323]; 6
CCN1CCc2c(c3ccccc3n2CCc2ccccc2)C1 [Compound 4]; 82

====

# System: AMPA receptors
# experiment: AMPA-receptor activity: kainic acid-induced currents in Purkinje cells (patch-clamp)
# Type: cell-based, rat
# recorded.conditions: compound 10^−7 M, mean±SEM, control=100%
Measured kainic acid-induced currents in Purkinje cells, % of Control values by item
measured.endpoint: kainic acid-induced currents in Purkinje cells, % of Control values (%)

CN1CCc2c(c3cc(Cl)ccc3n2CCc2noc(-c3ccccc3)n2)C1; 120
CN1CCc2c(c3cc(Cl)ccc3n2CCc2nc(-c3ccccc3)cs2)C1; 102
CN1CCc2c(c3ccccc3n2CCc2nc(-c3ccncc3)cs2)C1; 114
COc1ccc2c(c1)c1c(n2CCc2nc(-c3ccccc3)cs2)CCN(C)C1; 116
CN1CCc2c(c3ccccc3n2CCc2noc(-c3ccncc3)n2)C1; 149

====

# system.name: human recombinant histamine H1 receptor (Homo sapiens, UniProt P35367)
# Construct: expressed in transfected cells; host or cells: CHO cells
# Sequence (P35367 whole entry): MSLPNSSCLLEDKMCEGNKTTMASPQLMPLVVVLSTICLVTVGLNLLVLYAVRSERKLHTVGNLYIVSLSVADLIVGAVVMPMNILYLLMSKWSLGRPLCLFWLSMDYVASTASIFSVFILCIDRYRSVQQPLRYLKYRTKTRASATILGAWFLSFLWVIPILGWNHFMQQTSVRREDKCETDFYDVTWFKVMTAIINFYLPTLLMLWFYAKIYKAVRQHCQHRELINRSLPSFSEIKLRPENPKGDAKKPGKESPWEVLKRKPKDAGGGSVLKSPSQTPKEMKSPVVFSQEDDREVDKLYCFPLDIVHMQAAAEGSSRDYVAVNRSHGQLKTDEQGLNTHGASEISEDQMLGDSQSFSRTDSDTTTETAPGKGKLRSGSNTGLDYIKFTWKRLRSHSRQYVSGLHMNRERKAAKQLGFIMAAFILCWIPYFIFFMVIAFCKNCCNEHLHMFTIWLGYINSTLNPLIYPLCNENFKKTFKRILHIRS
# experiment: Histamine H1 radioligand binding ([3H]Pyrilamine)
# recorded.conditions: percent inhibition of specific binding; screened at 1 μM; read-out: Inhibition of ligand binding, Hist. H1
Outcome: Y for inhibition at 1 µM of at least 90%; N for anything lower.

Cc1ccc2c(c1)c1c(n2CCC(=O)N2CCC(N)CC2)CCN(C)C1; N
Cc1ccc2c(c1)c1c(n2CCc2ccc(F)cc2)CCN(C)C1; Y
CCc1ccc2c(c1)c1c(n2CCc2ccc(C)nc2)CCN(C)C1; Y
Cc1ccc(CCn2c3c(c4cc(C(C)C)ccc42)CN(C)CC3)cn1; Y
Cc1ccc(CCn2c3c(c4cc(C(=O)O)ccc42)CN(C)CC3)cn1; N
CN1CCc2c(c3cc(Cl)ccc3n2CC(=O)N2CCS(=O)(=O)CC2)C1; N
CC1CCCCN1C(=O)Cn1c2c(c3cc(Cl)ccc31)CN(C)CC2 (stereo not drawn); N
CN1CCc2c(c3cc(Cl)ccc3n2CCC(=O)N2CCOCC2)C1; N

====

Measured Inhibition of ligand binding, Ser. 5-HT2C by item
# system.name: human recombinant serotonin (5-Hydroxytryptamine) 5-HT2C receptor (Homo sapiens)
# Construct: expressed in transfected cells; host or cells: CHO-K1 cells
# Sequence (P28335 33-458): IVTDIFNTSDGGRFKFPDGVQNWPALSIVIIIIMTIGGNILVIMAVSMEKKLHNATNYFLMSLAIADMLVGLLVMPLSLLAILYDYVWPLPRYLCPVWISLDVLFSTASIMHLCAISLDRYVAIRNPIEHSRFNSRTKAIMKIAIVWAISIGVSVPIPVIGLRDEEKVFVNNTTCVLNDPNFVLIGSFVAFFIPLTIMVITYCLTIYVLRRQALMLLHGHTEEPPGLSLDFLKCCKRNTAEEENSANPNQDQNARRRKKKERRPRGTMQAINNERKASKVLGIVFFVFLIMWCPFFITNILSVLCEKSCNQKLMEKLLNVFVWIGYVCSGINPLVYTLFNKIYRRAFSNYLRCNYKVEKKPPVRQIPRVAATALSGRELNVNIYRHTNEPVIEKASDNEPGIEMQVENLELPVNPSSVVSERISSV
# experiment: Serotonin 5-HT2C radioligand binding ([3H]Mesulergine)
# Set-up: concentration or dose not given beside the values
# recorded.conditions: percent inhibition of specific binding
# Description: Compounds of the invention were incubated with 1 nM [^3H]Mesulergine for 60 minutes at 25° C. Non-specific binding was estimated in the presence of 1 μM Mianserin. Receptor proteins were filtered and washed, the filters were then counted to determine [^3H]Mesulergine specifically bound. […] Biochemical assay results are presented as the percent inhibition of specific binding in Table 6.
measured.endpoint: Inhibition of ligand binding, Ser. 5-HT2C (%)

Cc1ccc(CCn2c3c(c4cc(CO)ccc42)CN(C)CC3)cn1; 31
CN1CCc2c(c3cc(Cl)ccc3n2CC(=O)N2CCS(=O)(=O)CC2)C1; −19
CN1CCc2c(c3cc(OC(F)(F)F)ccc3n2CCc2ccc(C(F)(F)F)nc2)C1; 16
CCN1CCc2c(c3cc(C)ccc3n2CCc2ccncc2)C1; 29
Cc1ccc(CCn2c3c(c4cc(C(F)(F)F)ccc42)CN(C)CC3)cn1; 12
Cc1ccc2c(c1)c1c(n2CCc2ccc(C)nc2)CC(=O)N(C)C1; −5
Cc1ccc2c(c1)c1c(n2CCc2ccccc2F)CCN(C)C1; 96
Cc1ccc2c(c1)c1c(n2CCc2cnc(C)cn2)CCN(C)C1; 69
CN1CCc2c(c3cc(Cl)ccc3n2CCN2CCOCC2)C1; 89
Cc1ccc2c(c1)c1c(n2CCc2ccccc2)CCNC1; 82
CCc1ccc2c(c1)c1c(n2CCc2cnc(C)cn2)CCN(C)C1; 81
Cc1ccc(CCn2c3c(c4cc(C(C)C)ccc42)CN(C)CC3)cn1; 82
CN1CCc2c(c3c(Cl)cccc3n2CCc2ccccc2)C1; 98
Cc1ccc2c(c1)c1c(n2CCc2ccccc2)CCN(C)C1; 98
Cc1ccc(CCn2c3c(c4cc(C)ccc42)CN(C)CC3)cc1; 99
Cc1ccc2c(c1)c1c(n2CCc2ccc(C(=O)O)nc2)CCN(C)C1; 11

Origin of values: patent US9096591B2
